Reported values of pKd for individual entries
- Target Or Test System: T1, human BCMA on NCI-H929, OPM2 and Raji cells (human, UniProt Q02223 1-184)
- T1 construct: endogenous BCMA of human cell lines; also called TNFRSF17; CD269
- T1 chain: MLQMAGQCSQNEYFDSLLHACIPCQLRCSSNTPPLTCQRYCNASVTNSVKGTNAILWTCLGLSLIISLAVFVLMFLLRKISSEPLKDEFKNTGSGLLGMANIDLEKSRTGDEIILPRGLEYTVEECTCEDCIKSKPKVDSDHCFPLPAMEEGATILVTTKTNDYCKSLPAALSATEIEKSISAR
- Protocol Details: flow cytometry, OPM2 cells
pKd: −log10 of the molar value.

Binder	pKd
AB218 (antibody, human IgG1, kappa, V domains shown, IgG1 kappa) VH: QVQLVQSGAEVKKPGSSVKVSCKASGGTFSNYWIHWVRQAPGQGLEWMGATYRSQSTTYYNQKFKSRVTITADKSTSTAYMELSSLRSEDTAVYYCARGAVYHGYDVIDNWGQGTLVTVSS VL: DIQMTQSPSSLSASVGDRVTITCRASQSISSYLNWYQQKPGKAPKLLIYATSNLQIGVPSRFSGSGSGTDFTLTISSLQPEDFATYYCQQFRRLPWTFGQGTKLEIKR	9.16
AB217 (antibody, human IgG1, kappa, V domains shown, IgG1 kappa) VH: QVQLVQSGAEVKKPGSSVKVSCKASGGTFTNYWIHWVRQAPGQGLEWMGATYRSHSDTYYAQKYKSRVTITADKSTSTAYMELSSLRSEDTAVYYCARGAVYHGYDVIDNWGQGTLVTVSS VL: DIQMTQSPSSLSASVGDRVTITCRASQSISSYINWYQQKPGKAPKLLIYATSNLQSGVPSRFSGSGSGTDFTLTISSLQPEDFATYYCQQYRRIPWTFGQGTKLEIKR	8.63
AB214 (antibody, human IgG1, kappa, V domains shown, IgG1 kappa) VH: QVQLVQSGAEVKKPGSSVKVSCKASGGTFSNYWIHWVRQAPGQGLEWMGATYRSQSDTYYNQKYKSRVTITADKSTSTAYMELSSLRSEDTAVYYCARGAVYHGYDVIDNWGQGTLVTVSS VL: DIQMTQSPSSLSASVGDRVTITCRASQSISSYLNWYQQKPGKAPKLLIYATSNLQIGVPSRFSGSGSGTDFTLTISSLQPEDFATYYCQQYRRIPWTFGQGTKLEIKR	8.67
AB213 (antibody, human IgG1, kappa, V domains shown, IgG1 kappa) VH: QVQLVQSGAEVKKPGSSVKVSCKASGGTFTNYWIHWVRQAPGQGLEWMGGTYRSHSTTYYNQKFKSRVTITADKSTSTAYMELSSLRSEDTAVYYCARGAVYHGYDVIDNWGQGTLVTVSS VL: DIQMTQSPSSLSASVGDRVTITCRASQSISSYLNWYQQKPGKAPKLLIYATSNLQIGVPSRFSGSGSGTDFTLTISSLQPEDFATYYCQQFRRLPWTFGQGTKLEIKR	8.71
AB212 (antibody, human IgG1, kappa, V domains shown, IgG1 kappa) VH: QVQLVQSGAEVKKPGSSVKVSCKASGGTFSNYWIHWVRQAPGQGLEWMGGTYRSHSDTNYNQKFKSRVTITADKSTSTAYMELSSLRSEDTAVYYCARGAIYHGYDVIENWGQGTLVTVSS VL: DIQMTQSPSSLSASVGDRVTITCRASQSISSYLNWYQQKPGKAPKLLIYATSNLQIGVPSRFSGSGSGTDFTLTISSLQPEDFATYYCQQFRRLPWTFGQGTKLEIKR	8.36
